Reference for the values: patent US20220153834A1

test_system: T1, Recombinant mouse TSG-6 (R&D Biosystems, catalog #2326-TS) (mouse, UniProt O08859 18-275)
T1 construct: Bought protein, used KLH-coupled as the immunogen; also called mTSG-6
T1 sequence (O08859 18-275 limits assumed): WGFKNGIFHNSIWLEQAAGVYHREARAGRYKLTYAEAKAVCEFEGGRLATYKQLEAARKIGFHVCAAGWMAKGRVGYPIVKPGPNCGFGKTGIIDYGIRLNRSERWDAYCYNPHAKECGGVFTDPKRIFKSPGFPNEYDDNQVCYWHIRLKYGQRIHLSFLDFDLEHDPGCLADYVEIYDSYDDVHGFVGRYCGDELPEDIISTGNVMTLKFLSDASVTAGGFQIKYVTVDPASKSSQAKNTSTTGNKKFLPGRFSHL
assay_method_text: hybridoma raised against mouse TSG-6; clone selection by ELISA

- binder: "3E1 (antibody, V domains shown, Entries as printed include a leader and part of the constant region) VH: QVQLQQSGAELAKPGASVRLSCQASGYTFTSYWMHWVKQRPRQGLEWIGYIIPSSGYTKCHQKFKDKATLTADKSSSTAYMQLSSLTYEDSAVYYCARSTSGYPYYFDSWGQGTTLTVSS VL: ENVLTQSPAIMSASPGERVTMTCSATSSVSFMHWYQQKSSTSPKLWIYDTSKLASGVPGRFSGSGSGNSYSLTISSMEAEDVATYYCFQGSWYPLTFGAGTKLELKR"
  binding result: "binds"
- binder: "1A9 (antibody, V domains shown, Entries as printed include a leader and part of the constant region) VH: EVQLQQSGPELVKPGASVKISCKASGYTFTDYYMNWVKQSHEKSLEWIGDINPNNGGTSYNQKFMGKATLTVDKSSRTAYMELRSLTSEDSTVYYCARWGIYDRFTYWGQGTLVSVSA VL: DIKMTQSPSSMYASLGERVTIACKASQDINSFLSWFQQKPGKSPKTLIYRANRLVDGVPSRFSGSGSGQDYSLTISSLEYEDMGIYYCLQYDEFPLTFGAGTKLELKR"
  binding result: "binds"
